Test system: P-glycoprotein
Assay: Reversal of multidrug resistance: rhodamine 123 accumulation in human mdr1 transfected L5178 mouse T-cell lymphoma cells (flow cytometry)
Assay type: cell-based
Conditions: Table 2; 4 μg/ml; Verapamil at 10 μg/ml
Protocol: L5178 mouse T-cell lymphoma cells were transfected with pHa MDR1/A retrovirus, by the method as described by J. L. Weaver [J. L. Weaver, G. Szabó, P. S. Pine, M. M. Gottesmann, S. Goldenberg and A. Aszalos: The effect of ion channel blockers, immunosuppressive agents and other drugs on the activity of the multidrug transporter. Int. […] Mdr-1-expressing cell lines were selected by culturing the transfected cells with 60 ng/mL of colchicine to maintain the expression of the MDR phenotype. […]
observable: Vrel = effect related to Verapamil
Answer using only a numeral; do not append any unit.

Illustrative cases are given below, each with its answer.
Problem: Which measured Vrel = effect related to Verapamil value corresponds to `CCOC(=O)[C@H]1C[C@H]2C[C@@H]([C@H]1NC(=S)Nc1cccc(OC)c1)C2(C)C` ?
Result: 0.41

Problem: Which measured Vrel = effect related to Verapamil value corresponds to `CCOC(=O)[C@H]1C[C@H]2C[C@@H]([C@H]1NC(=S)NCCc1ccc(OC)c(OC)c1)C2(C)C` ?
Result: 0.82

Next:
Problem: Which measured Vrel = effect related to Verapamil value corresponds to `CCOC(=O)[C@H]1C[C@H]2C[C@@H]([C@H]1NC(=O)Nc1ccc(Cl)cc1)C2(C)C` ?
Result: 1.52

Problem: Which measured Vrel = effect related to Verapamil value corresponds to `CCOC(=O)[C@H]1C[C@@H]2C[C@H]([C@@H]1NC(=S)Nc1cccc(OC)c1)C2(C)C` ?
Result: 0.62

* * *

Test system: MRC-5 human fibroblast cell lines
Test: Cytotoxicity on MRC-5 human fibroblast cell lines (Alamar Blue/resazurine, 24 h)
Format: cell-based
Conditions: MRC-5 cells, 24 hours incubation, 1% DMSO
Experimental: The toxic effect of the compounds was measured on MRC-5 human fibroblast cell lines in accordance with the method that has been described in the article published by Molnár et al. [L. Molnár, G. M. Keserü, Á. […] The ratio of the viable cells was determined by reducing the Alamaar Blue (resazurine) reagent that was followed fluorimetrically. The measured materials were not toxic on the given cell line in a concentration of 128 μmol after incubation for one day. […]
Recorded Survival (%) [c = 128 μM] by entry
Dear colleague, please send the value followed by its unit.

Illustrative cases are given below, each with its answer.
Problem: Which measured Survival (%) [c = 128 μM] value corresponds to `CCOC(=O)[C@@H]1C[C@H]2C[C@@H]([C@H]1NC(=O)Nc1ccc(Cl)cc1)C2(C)C` ?
Result: 167.6%

Problem: Which measured Survival (%) [c = 128 μM] value corresponds to `CCOC(=O)[C@H]1C[C@H]2C[C@@H]([C@H]1NC(=O)Nc1ccc(Cl)cc1)C2(C)C` ?
Result: 176.7%

Problem: Which measured Survival (%) [c = 128 μM] value corresponds to `CCOC(=O)[C@H]1C[C@@H]2C[C@H]([C@@H]1NC(=S)Nc1cccc(OC)c1)C2(C)C` ?
Result: 214.1%

Problem: Which measured Survival (%) [c = 128 μM] value corresponds to `CCOC(=O)[C@@H]1C[C@H]2C[C@@H]([C@H]1N(Cc1ccccc1)C(=S)Nc1cccc(OC)c1)C2(C)C` ?
Result: 113.0%

Problem: Which measured Survival (%) [c = 128 μM] value corresponds to `CCOC(=O)[C@H]1C[C@H]2C[C@@H]([C@H]1NC(=S)NCCc1ccc(OC)c(OC)c1)C2(C)C` ?
Result: 182.2%

Next:
Problem: Which measured Survival (%) [c = 128 μM] value corresponds to `CCOC(=O)[C@H]1C[C@H]2C[C@@H]([C@H]1N(Cc1ccccc1)C(=S)Nc1cccc(OC)c1)C2(C)C` ?
Result: 97.7%

Problem: Which measured Survival (%) [c = 128 μM] value corresponds to `CCOC(=O)[C@H](Cc1ccccc1)NC(=O)[C@@H]1C[C@@H]2C[C@H]([C@@H]1NC(=O)OC(C)(C)C)C2(C)C` ?
Result: 125.3%
